experiment: soluble on expression in E. coli; label from the status in PepcDB or PDB records

sequence input	soluble on expression in E. coli
MIYRFTIISDEVDDFVREIQIDPEATFFDLHEAILKAANYTNDQMTSFFICDDDWEKEKEITLEEMDNNPEMDSWIMKETRLNELIEDEKQKLLYVFDYMTERCFFIELSEIITGKEIKGAKCTKKSGEAPKQTVDFEEMAAGGGSLDLDENFYGDQDFDMEDFDAEGFDVNDGAAGGGSSYDEDKFLEHHHHHH	soluble
AIATNDANHLESNCVEEQVQQSLREPWWWLRWRDTPRQQLRGTLFVYTATCPDEKIQRERGFAADHEQVYAFVSFGPEVETDPREHVVEIVKALTSMRSFVETLERTLFEDEDSEPAARTYTHDEPCSVAHHSADADQQFLVETVRHDRIAAAYSSMSQEMHTAPEGARPDCFSKGTSQDHETDTSQPILRKKDETDTWVVALGPDHLVASHTLAACGCALFLGLEWDFRACRSRSDDDFRIMELFQEDLKSRVTWLAPRLGLQHKHACSAQCKDQARNRDSSWDVLLREWLPQAIPGGPRHPQAM	soluble
SMGTKLKKSNNDITIFSENEYNEIVEMLRDYSNGDNLEFEVSFKNINYPNFMRITEHYINITPENKIESNNYLDISLIFPDKNVYRVSLFNQEQIGEFITKFSKASSNDISRYIVSLDPSDDIEIVYKNRGSGKLIGIDNWAITIKSTEEIPLVAGKSKISKPKITGSERIMYRYKTRYSFTINKNSRIDITDVKSSPIIWKLMTVPSNYELELELINKIDINTLESELLNVFMIIQD	soluble

----------
experiment: soluble on expression in E. coli; label from the status in PepcDB or PDB records
value type: soluble on expression in E. coli

sequence input	value type	observed result
MQQVFKKPVSLKDVQTHFCPGCHHGTFHRLVAEAMDEFGVQKKTIGVASVGCSVFLYGYFDIDVVEAPHGRAPAVATGVKRARPDAFVFTYQGDGDLAAIGTSEIIHAANRGEDITVIFVNNTTYGMTGGQMAPTTLVGQRTSTSPYGRKNEKDGSPIRMAELLAQLEGVAFSARVAVNNPKNLMDAKRQIKKAFRYQAEGKGFSFIEALSSCPTNWGMDALAANERVGTEMCA	soluble on expression in E. coli	not soluble
MGSDKIHHHHHHMERRTILVTGASGFVGGALCRQLATLGSFAIRAASRDLGGASVAGIQAVTVADLSATTDWARALSGVDLVVHAAARVHVMKETASDSLAEFRRVNVDGTLNLARQAAAAGVRRFIFISSIKVNGESSQPGQPLRADDSPAPQDAYGVSKHEAEQGLRQLAAATGMEVVVIRPVLVYGPGVKANFHSMMRWLQRGVPLPFGAVCNRRSLVSLANLVDLVVTCIDHPRAANQTFLASDGDDVSLTQLLRALGLALGRPARLLPVPAGLLRGAVLLIGRRDLAQRLFGTLQVDIEKNRQLLGWYPPCTLEQGLNMTARSFLGARRP	soluble on expression in E. coli	not soluble
MHVAMALADIDRVGGVVIIDPVVHPLTPKHPPNQAERGQIRADRCSTAVFAWLFHEWNATGRSALMRGLTCFAGNTNAQPKHPRRAFRDRLGSTGPRPPRLTVASTPSRQPHHRRILIVTKAKSGSVAPELDTPTDLPPQSVEKISTALNGLLADSFALYLKTKNFHWHISGRHFRDYHLLLDEQSAQILATTDDLAERVRKVGGTTLRSIGHISKLQSIQDNNDDYVPPREMLRELMNDNKKVAAAMRKAHEIVDECKDAASAGLLENFIDETEKRTWFLFEATRQEGANEA	soluble on expression in E. coli	not soluble

----------
test: soluble on expression in E. coli; label from the status in PepcDB or PDB records
value type: soluble on expression in E. coli

Solved entries (count: 5):
sequence input	soluble on expression in E. coli
MSLSIRSLFGGLREKILGKNMKIVFPEGNDERVVRAAARLKFEGLLEPIILGQSEEVRNLLTKLGFADQDYTIINPNEYADFDKMKEAFVEVRKGKATLEDADKMLRDVNYFGVMLVKMGLADGMVSGAIHSTADTVRPALQIIKTKPGISRTSGVFLMNRENTSERYVFADCAINIDPTAQELAEIAVNTAETAKIFDIDPKIAMLSFSTKGSGKAPQVDKVREATEIATGLNPDLALDGELQFDAAFVPETAAIKAPDSAVAGQANTFVFPDLQSGNIGYKIAQRLGMFDAIGPILQGLNKPVNDLSRGSSAEDIYKLAIITAAQAIESQGEGHHHHHH	soluble
MMINIQEDKLVSAHDAEEILRFFNCHDSALQQEATTLLTQEAHLLDIQAYRAWLEHCVGSEVQYQVISRELRAASERRYKLNEAMNVYNENFQQLKVRVEHQLDPQNWGNSPKLRFTRFITNVQAAMDVNDKELLHIRSNVILHRARRGNQVDVFYAAREDKWKRGEGGVRKLVQRFVDYPERILQTHNLMVFL	soluble
MGVLTTFISQKALVGGYDNTIEPGVVILSGATITCNVSIGQGTFINKSTVISHDVRIGRYCEVSPGAKVLGRAIIGDRTEIGANAVILPDVIVGADCKIGAGAVVTRNIDSHTTVAGVPARSITKSSNNAFKLKSKIRNLLYHIRIADFRKLREYNHYVFGLEHHHHHH	not soluble
MGENITTRGVDLLGLPTGTRLRLGESALVELTGLRNPCSQLDNYQPGLTAAVLGRDEQGNLIRKAGVMAIVLEDGEVRPGDAIDIQLPPLPHRALEKV	not soluble
MKANTIIAGLLSSTLLATAAYAQTPAPADSTRTMSKSTSASESQHMGQWRASKLIGVNVYNQGNEKLGDISEMLIDSEGRIQGVVIGVGGFLGVGQRDVAVTFDKLQWVNTPVSSNTAMNSQTTPAGSGTSTASPAGTTTGAATSTTAANNADRWYPDHAVLNATKDQLKSMPEFKYSK	not soluble

# next sequence below
Fill blank: measured soluble on expression in E. coli of the sequence `MGSDKIHHHHHHMIVGFAGKLYKNYEKDGIELLKEVTDEALDIAGLNYADVDGIMANIGRGSFHGNRTYLNPPAQISEYFGIKPKIIEHVQYGGPSVLSMIYRAYKAIKAGDAETILCIQGGKISHLRDNHFQKTDIIDSPFDEYIKIYDQMSPISDYAMVAYRHSKLFGTTDEQRARIAVIQRYNASYNPKALFRNPITVEDVLKSRIVSYPLHLLEIVYPIDGFHVFVVSKRSSKSALRNIDILAYGEAHWPNPPAEWDDIIYTPTTESAKRASFDLNRVDAFQLYDSFTITVMLQMEDIGLVEKGKVGQFVESHDLSFKGDVPINTGGGSLNTGQPAYMSGGVILEEALLQLNDMANGHQVKGANVIFLNGIGWWSRRHSVTLVLGERK` is ____.
not soluble

----------
assay: soluble on expression in E. coli; label from the status in PepcDB or PDB records
value type: soluble on expression in E. coli

sequence input	observed result
SLSIKTILIDDEPKAIAILKNKIERLCPDLEIVATIEKPALAFDIINELQPQLVFIDIAMPGMSGFDVLEQFKKPQFEIIFATAFDQYALDAIKQCAIGYLVKPIDNEDLVEAVTNATTNIEQKNALVKNTQLLENINQENFHKKKIVIPSTDGLEFVKVKSITHCEGVDGYTKIHFTNRKPILSSSSIGHFKKLLSHPDFYHVHKSYVTNTNHIIKYLNDGYVTLTGDVTIPVARAKRAEFLEKFRNEG	not soluble
MSLSVPQKRYFLGLHIGHDRAITVADDTNLVFHTAVERLDRKKHSDSFHLPVEEIKTVLLYLNVDVSELRGVCISYLAVDASRVSMTLEASFRDAFPDFEGRFSALDHHLAHALGAKVCSGFDEALVVVADGAGDQRLWGSQSETIYHVSSDTFYLLDERVQSPPLTYINRPEFYDPSYFRPDDQERQISLGLKYEQITYLCGFGPGQAGQTMALAAFGKPLFDYRNMLPKDLSFSLRYTDFLREFEALARADGLSLIQFAKSRRSDIAATYQAYLSEALSAIVKDALDRFPSKRVCFSGGLFLNCLSNRRLHDEHPDRELFFFPACNDEGQSIGTAAYAYWQEHSRLPREGHHHHHH	not soluble

----------
assay: soluble on expression in E. coli; label from the status in PepcDB or PDB records

sequence input	soluble on expression in E. coli
WRKKRKDAKNNEVSFSQIKPKKSKLIRVENFEAYFKKQQADSNCGFAEEYEDLKLIGISLPKYAAEIAENRGKNRYNNVLPYDISRVKLSVQTHSTDDYINANYMPGYHSKKDFIATQGPLPNTLKDFWRMVWEKNVYAIVMLTKCVEQGRTKCEEYWPSKQAQDYGDITVAMTSEVVLPEWTIRDFVVKNMQSSESHPLRQFHFTSWPDHGVPDTTDLLINFRYLVRDYMKQIPPESPILVHCSAGVGRTGTFIAIDRLIYQIENENTVDVYGIVYDLRMHRPLMVQTEDQYVFLNQCVLDIIRAQKDSKVDLIYQNTTAMTIYENLERVSMFGKANGYIA	soluble
EGGDFVVGMVTDSGDIDDKSFNQQVWEGISRFAQENNAKCKYVTASTDAEYVPSLSAFADENMGLVVACGSFLVEAVIETSARFPKQKFLVIDAVVQDRDNVVSAVFGQNEGSFLVGVAAALKAKEAGKSAVGFIVGMELGMMPLFEAGFEAGVKAVDPDIQVVVEVANTFSDPQKGQALAAKLYDSGVNVIFQVAGGTGNGVIKEARDRRLNGQDVWVIGVDRDQYMDGVYDGSKSVVLTSMVKRADVAAERISKMAYDGSFPGGQSIMFGLEDKAVGIPEENPNLSSAVMEKIRSFEEKIVSKEIVVPVRSARMMN	soluble
